Biological target: Anti-CD28 Fab (SEQ ID NOs: 696, 697)
Sequence (VH, as listed by the source, chain 1 of 2): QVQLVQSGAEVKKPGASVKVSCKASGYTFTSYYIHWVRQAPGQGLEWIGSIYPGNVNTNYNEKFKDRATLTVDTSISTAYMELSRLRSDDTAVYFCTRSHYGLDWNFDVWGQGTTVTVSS
Sequence (VL, as listed by the source, chain 2 of 2): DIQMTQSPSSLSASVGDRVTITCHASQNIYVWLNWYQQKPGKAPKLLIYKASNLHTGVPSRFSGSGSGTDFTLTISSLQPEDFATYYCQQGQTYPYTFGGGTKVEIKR
Experiment: phage binding ELISA; biotinylated anti-CD28 Fab on neutravidin plate, clonal phage supernatant, anti-M13 HRP detection
Where no end group is shown, it is not given here.
Give Anti-CD28 Fab (SEQ ID NOs: 696, 697) signal for every item shown.
Numbers only.

Known results for binders:
BINDER | RECORDED VALUE
YCEGHSPEYMTKCL (cysteine pairing not given here; also: displayed on phage by fusion to pIII, pIII and linker sequence not given here) [Phage-701] | 2.02
YCEGHAPQYIAKCL (cysteine pairing not given here; also: displayed on phage by fusion to pIII, pIII and linker sequence not given here) [Phage-696] | 2.03
YCDGHSPMYIGKCL (cysteine pairing not given here; also: displayed on phage by fusion to pIII, pIII and linker sequence not given here) [Phage-697] | 2.03
YCEGHRPEYMQKCL (cysteine pairing not given here; also: displayed on phage by fusion to pIII, pIII and linker sequence not given here) [Phage-699] | 2.03
YCQGHLPEYMSKCL (cysteine pairing not given here; also: displayed on phage by fusion to pIII, pIII and linker sequence not given here) [Phage-708] | 2.01

For the next question, use this binder.
Ask: Look up and state reported Anti-CD28 Fab (SEQ ID NOs: 696, 697) signal for YCEGHSIQYMAKCL (cysteine pairing not given here; also: displayed on phage by fusion to pIII, pIII and linker sequence not given here) [Phage-702]
Reply: 2.02
